Target under test: UniProt P08659
Sequence (P08659 whole entry): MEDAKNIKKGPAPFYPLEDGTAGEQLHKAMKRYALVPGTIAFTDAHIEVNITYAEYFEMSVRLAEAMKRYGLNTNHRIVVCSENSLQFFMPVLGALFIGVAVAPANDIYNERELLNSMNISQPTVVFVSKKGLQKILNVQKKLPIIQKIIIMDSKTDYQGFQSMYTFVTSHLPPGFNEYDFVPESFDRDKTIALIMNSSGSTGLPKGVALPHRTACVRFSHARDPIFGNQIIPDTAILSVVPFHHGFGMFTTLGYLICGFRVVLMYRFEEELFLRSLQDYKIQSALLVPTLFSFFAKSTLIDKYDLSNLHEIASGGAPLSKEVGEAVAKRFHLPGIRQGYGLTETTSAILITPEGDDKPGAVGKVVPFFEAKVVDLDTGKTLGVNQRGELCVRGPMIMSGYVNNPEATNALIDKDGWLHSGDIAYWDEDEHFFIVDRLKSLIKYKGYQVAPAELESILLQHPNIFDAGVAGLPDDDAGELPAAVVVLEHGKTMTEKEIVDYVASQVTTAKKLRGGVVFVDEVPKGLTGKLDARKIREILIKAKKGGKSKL
Protocol details: Firefly luciferase inhibition assay
Study conditions: read-out: EC50 Luciferase; 10 nM Photinus pyralis luciferase, 10 μM ATP, 10 μM D-Luciferin
Readout kind: EC50 (nM)
The answer is to be given in nM; state only the numeric part.

In: In one line, give reported EC50 of the entry "O=C1c2cnc(-c3cc4ccccc4o3)nc2OCCN1c1ccccc1" .
Out: 80

In: Please look at this molecule and report its EC50: "COc1cccc(-c2ncc3c(n2)OCCN(c2ccccc2)C3=O)c1"
Out: 890

---

Test system: KB 3–1 cells
Protocol details: CellTiter-Glo cytotoxicity qHTS, KB 3-1
Assay type: cell-based, human
Study conditions: Homo sapiens, KB 3-1, 48 h, read-out: EC50 KB 3–1
Readout kind: pEC50
Lab note — pEC50 values are minus log10 of concentrations in M.

In: # return pEC50 of CC(C)C[C@H](NC(=O)[C@@H](NC(=O)c1cccc(-c2ccccc2)n1)[C@@H](C)O)B(O)O [delanzomib] (system: KB 3–1 cells)
Out: 6.73

---

Tested on: CRL-7250 cells
Protocol details: CellTiter-Glo cytotoxicity qHTS, CRL-7250
Format: cell-based, human
Study conditions: Homo sapiens, 48 h, read-out: EC50 CRL-7250
Readout kind: EC50 (nM)
Supply the numeric figure in nM, leaving out any unit text.

In: Tell me EC50 of "CC(C)C[C@H](NC(=O)[C@@H](NC(=O)c1cccc(-c2ccccc2)n1)[C@@H](C)O)B(O)O" when tested on CRL-7250 cells.
Out: 205

---

Tested on: NIH 3T3 cells
Protocol details: CellTiter-Glo cytotoxicity qHTS, NIH 3T3
Format: cell-based, murine
Study conditions: read-out: EC50 NIH 3T3; CellTiter-Glo, 48 hr incubation
Readout kind: EC50
The number alone won't do; follow it with the unit.

In: Check the records and state EC50 for O=C(c1ccc(Cl)cc1)N1CCOCC2(CN(Cc3cc(F)cc(F)c3)C2)C1 [NCGC00419015]
Out: 720 nM
